Documented PBM E-score across a set of sequences
- target of assay: Nrg2 (UniProt P38082)
- Sequence: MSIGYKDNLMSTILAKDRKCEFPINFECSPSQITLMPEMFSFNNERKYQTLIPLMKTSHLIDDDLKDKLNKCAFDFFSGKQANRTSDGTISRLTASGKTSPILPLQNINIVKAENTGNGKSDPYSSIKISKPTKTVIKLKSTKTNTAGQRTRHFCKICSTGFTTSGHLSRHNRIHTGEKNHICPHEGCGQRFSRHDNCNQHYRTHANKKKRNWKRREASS
- test method notes: PBM E-score (8-mer binding enrichment) (E-score (-0.5 to 0.5)); higher = stronger / more preferred TF binding
- measurement context: protein concentration: 100 nM; construct: GST-full length
In all, about 33,000 sequences were measured (“E-score (-0.5 to 0.5)”: median about -8e-05, highest 2% from about 0.23 on). The list comes from a sample in which the highest values are over-represented; it also holds close analogues and randomly drawn sequences.
# output: bare number, no unit

1) AGGGACGC ... 0.196
2) AGCTTTAC ... -0.26
3) AGGGACCT ... 0.382
4) CACAGCGC ... 0.156
5) CACAGGCA ... 0.0159
6) GGGCATAA ... 0.109
7) CGGGACCA ... -0.173
8) CTTATGGC ... -0.0261
9) GTAACTAC ... 0.0907
10) AGGGACCA ... 0.35

Kindly consider the entry below.
Prompt: Query (sequence): GGGGACCA ; field requested: PBM E-score
Completion: 0.0565

Where do these numbers come from? They come from the supplement of paper PMC3334620.
